Biological target: DLG1_3, Q12959
Sequence (Q12959 457-571): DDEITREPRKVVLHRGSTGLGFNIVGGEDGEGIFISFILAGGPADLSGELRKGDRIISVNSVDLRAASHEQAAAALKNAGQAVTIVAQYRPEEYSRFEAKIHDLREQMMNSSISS
Test: holdup assay
Set-up: key: below the threshold = too weak to quantify, mostly under pKd 3.1 to 4
Settings: plain residues with an end cap or a label only (N-terminal biotin on a linker: ahx)
quantityName: pKd

q: Tell me pKd reported for YNSFLSVTTV [PDZRN3, Q9UPQ7]
a: 3.83

q: Tell me pKd reported for KEYDDELTFF [USH1C, Q9Y6N9]
a: below the threshold

q: Tell me pKd reported for KDECVIATEV [DLL1, O00548]
a: below the threshold
